The values you see were collected from patent US20200270232A1.

What % Recovery of protein synthesis (1 μM test compound) was measured for each of the following?
# Tested on: Chinese hamster ovary (CHO) cells
# Test Summary: Protein translation assay (puromycin labelling, western blot)
# Format: cell-based
# Settings: stressed CHO cells, 300 nM Tg, 2 hours, media alone = 100%, Tg alone = 0%
Field format: number, assumed %, no unit text.

Q: Suppose we examine the compound O=C(NC1CCN(CCCOc2ccc(Cl)c(F)c2)C1)c1ccc2cc(Cl)ccc2n1 (stereo not drawn) ; what % Recovery of protein synthesis (1 μM test compound) value has been reported?
Result: 32.73

Q: Suppose we examine the compound O=C(NC1CC[C@H](NC[C@H](O)COc2ccc(Cl)c(F)c2)C1)c1cc2cc(Cl)ccc2o1 (stereo partly drawn) ; what % Recovery of protein synthesis (1 μM test compound) value has been reported?
Result: 209.4

Q: Suppose we examine the compound O=C(COc1ccc(Cl)c(F)c1)NCC1CCN(NC(=O)c2ccc3cc(Cl)ccc3n2)C1 (stereo not drawn) ; what % Recovery of protein synthesis (1 μM test compound) value has been reported?
Result: 51.4

Q: Suppose we examine the compound O=C(NC1CCC(NC[C@H](O)COc2ccc(Cl)c(F)c2)C1)c1cc2cc(Cl)ccc2o1 (stereo partly drawn) ; what % Recovery of protein synthesis (1 μM test compound) value has been reported?
Result: 175.2

Q: Suppose we examine the compound O=C(N[C@H]1CC[C@H](NCC(O)COc2ccc(Cl)c(F)c2)C1)c1ccc2cc(Cl)ccc2n1 (stereo partly drawn) ; what % Recovery of protein synthesis (1 μM test compound) value has been reported?
Result: 161.6

Q: Suppose we examine the compound O=C(COc1ccc(Cl)c(F)c1)NCC1CCC(NCC(O)COc2ccc(Cl)c(F)c2)C1 (stereo not drawn) ; what % Recovery of protein synthesis (1 μM test compound) value has been reported?
Result: 42.5

* * *

What % Recovery of protein synthesis (1 μM test compound) was measured for each of the following?
# System: Chinese hamster ovary (CHO) cells
# Test Summary: Protein translation assay (puromycin labelling, western blot)
# Format: cell-based
# Settings: stressed CHO cells, 300 nM Tg, 2 hours, media alone = 100%, Tg alone = 0%
Field format: number, assumed %, no unit text.

Q: Suppose we examine the compound O=C(NC1CC[C@H](NC[C@@H](O)COc2ccc(Cl)c(F)c2)C1)c1cc2cc(Cl)ccc2o1 (stereo partly shown) ; what % Recovery of protein synthesis (1 μM test compound) value has been reported?
Result: 269.7

Q: Suppose we examine the compound O=C(COc1ccc(Cl)c(F)c1)NCC1CCN(NC(=O)COc2ccc(Cl)c(F)c2)C1 (stereo not shown) ; what % Recovery of protein synthesis (1 μM test compound) value has been reported?
Result: 45.8

Q: Suppose we examine the compound `O=C(N[C@@H]1CC[C@@H](NC[C@@H](O)COc2ccc(Cl)c(F)c2)C1)c1cc2cc(Cl)ccc2o1` ; what % Recovery of protein synthesis (1 μM test compound) value has been reported?
Result: 170.5

Q: Suppose we examine the compound O=C(COc1ccc(Cl)c(F)c1)NCC1CCN(NC(=O)c2cc3cc(Cl)ccc3o2)C1 (stereo not shown) ; what % Recovery of protein synthesis (1 μM test compound) value has been reported?
Result: 13

Q: Suppose we examine the compound O=C(COc1ccc(Cl)c(F)c1)N[C@H]1CC[C@H](NCC(O)COc2ccc(Cl)c(F)c2)C1 (stereo partly shown) ; what % Recovery of protein synthesis (1 μM test compound) value has been reported?
Result: 52.5

Q: Suppose we examine the compound O=C(COc1ccc(Cl)c(F)c1)NC1CCN(CCCOc2ccc(Cl)c(F)c2)C1 (stereo not shown) ; what % Recovery of protein synthesis (1 μM test compound) value has been reported?
Result: 0.00

Q: Suppose we examine the compound O=C(N[C@H]1CC[C@@H](NCC(O)COc2ccc(Cl)c(F)c2)C1)c1cc2cc(Cl)ccc2o1 (stereo partly shown) ; what % Recovery of protein synthesis (1 μM test compound) value has been reported?
Result: 54.6

Q: Suppose we examine the compound O=C(NC1CCN(CCCOc2ccc(Cl)c(F)c2)C1)c1cc2cc(Cl)ccc2o1 (stereo not shown) ; what % Recovery of protein synthesis (1 μM test compound) value has been reported?
Result: 86.10

Q: Suppose we examine the compound `O=C(N[C@H]1CC[C@H](NC[C@@H](O)COc2ccc(Cl)c(F)c2)C1)c1cc2cc(Cl)ccc2o1` ; what % Recovery of protein synthesis (1 μM test compound) value has been reported?
Result: 298.3

Q: Suppose we examine the compound `O=C(COc1ccc(Cl)c(F)c1)NC[C@@H]1CCN(NC(=O)c2cc3cc(Cl)ccc3o2)C1` ; what % Recovery of protein synthesis (1 μM test compound) value has been reported?
Result: 24.5

Q: Suppose we examine the compound O=C(NCC1CCC(NCC(O)COc2ccc(Cl)c(F)c2)C1)c1ccc2cc(Cl)ccc2n1 (stereo not shown) ; what % Recovery of protein synthesis (1 μM test compound) value has been reported?
Result: 122.6

Q: Suppose we examine the compound `O=C(COc1ccc(Cl)c(F)c1)N[C@@H]1CC[C@H](NC(=O)c2cc3cc(Cl)ccc3o2)C1` ; what % Recovery of protein synthesis (1 μM test compound) value has been reported?
Result: 22

Q: Suppose we examine the compound O=C(NC1CCN(CC(O)COc2ccc(Cl)c(F)c2)C1)c1ccc2cc(Cl)ccc2n1 (stereo not shown) ; what % Recovery of protein synthesis (1 μM test compound) value has been reported?
Result: 37.93

Q: Suppose we examine the compound O=C(NCC1CCC(NCC(O)COc2ccc(Cl)c(F)c2)C1)c1cc2cc(Cl)ccc2o1 (stereo not shown) ; what % Recovery of protein synthesis (1 μM test compound) value has been reported?
Result: 101.1

Q: Suppose we examine the compound O=C(NC1CCN(CC(O)COc2ccc(Cl)c(F)c2)C1)c1cc2cc(Cl)ccc2o1 (stereo not shown) ; what % Recovery of protein synthesis (1 μM test compound) value has been reported?
Result: 142.63

Q: Suppose we examine the compound O=C(NCC1CCN(C[C@@H](O)COc2ccc(Cl)c(F)c2)C1)c1ccc2cc(Cl)ccc2n1 (stereo partly shown) ; what % Recovery of protein synthesis (1 μM test compound) value has been reported?
Result: 23.9
